assay: in vitro; details: human, hela cells, % viability
I'd appreciate it if you could supply viability at 28.5 h, 10 µM values for the items below.
Report as a plain number; the unit % is understood.

Would you kindly share the measured viability at 28.5 h, 10 µM for N#CCCCN1CCC(Oc2nccnc2OCc2cccc(OCc3ccccc3)c2)CC1 ? 97.5

Follow-up item: Cc1ccc2nc(O)c(CNc3ccc(-c4nc5cc(C)ccc5[nH]4)cc3)cc2c1 89.7

Here is the next molecule: Cc1nc(C)c(CNC(=O)NC2CCCN(c3ccn(C)n3)C2=O)s1 (stereo not drawn) 86

Try this molecule too: COc1ccc(C)cc1S(=O)(=O)N(CC(=O)N1CCN(C)CC1)c1cccc(C(F)(F)F)c1 96.2

Now this one: CCN(CC)C(=O)NC(C)c1cccc(S(=O)(=O)NC)c1 (stereo not drawn) 94.4

Now consider OCC1CCCCC1NCCCC(c1ccc(F)cc1)c1ccc(F)cc1 (stereo not drawn) [CBK015830C] and answer again. 104

Next up: Cc1ccc(CN(Cc2cnc(C)n2C)CC2CCCO2)o1 (stereo not drawn) 100

Next up: CC(C)(C)c1ccc(Oc2c(C(F)(F)F)oc3cc(OCC(=O)O)ccc3c2=O)cc1 94.1

And Cc1ccc(Cc2cnc(NC(=O)NC3CCOC(C)(C)C3)s2)cc1F (stereo not drawn) ? 92.2

And the next one, O=C(NC(c1ccccc1)c1ccco1)C1CCN(CCc2c[nH]c3ccccc23)CC1 (stereo not drawn) ? 100

Next: CC(C)CNC(=S)N[C@H]1CC[C@@]2(c3cccnc3)CCN(Cc3ccccc3)[C@H]2C1 125

Try this molecule too: Cn1c(CN2CCN(S(C)(=O)=O)CC2)nc2cc([N+](=O)[O-])ccc21 98.4

----------
assay: in vitro; parameters: Viability of infected HeLa host cells, resazurin conversion, bulk resorufin fluorescence relative to DMSO; conditions: human, hela cells; bulk resorufin, mean of 3
Task for the reader: assign each of the following compounds its reported viability at 28.5 h, 0.000416667 µM.
Expressed in %, but write only the number.

Give its viability at 28.5 h, 0.000416667 µM value. Item: N#Cc1c(Nc2cccc(C(F)(F)F)c2)sc(C(=O)c2ccc3c(c2)OCO3)c1N 88

Request: CCOc1ccsc1C(=O)NC1Cc2ccccc2C1 [c16e] 89.7

Entry O=C(CC1CCN(CCc2ccccc2)CC1)Nc1cccc(-n2cccn2)c1 please 92.2

Another compound to look at: O=C(CSc1nnc(-c2cccnc2)o1)c1ccccc1 [c35e] 99.4

Proceed to O=C(N/N=C/c1ccc(Sc2cccc3cccnc23)o1)c1cccc(F)c1 [c10e] 84.5

And Cn1cc(C(c2ccc(OCC(=O)O)cc2)c2cn(C)c3ccccc23)c2ccccc21 [c48e] ? 87.9

Proceed to O=C(NCCc1c[nH]c2ccc(Cl)cc12)c1c(F)ccc(Cl)c1F [c42e] 100

----------
assay: in vitro; details: human, hela cells, % viability
measureName: viability at 28.5 h, 10 µM (%)
I only need the number, in %, no unit after it.

Recorded viability at 28.5 h, 10 µM for O=C(NC(C(=O)N/N=C/c1ccc(O)cc1)c1n[nH]c(=O)c2ccccc12)c1ccccc1 (centres unmarked) , please? 116

Same for Brc1nc2c3c(nc(N4CCOCC4)c2s1)CCCC3 83.4

Would you mind doing N#Cc1cnccc1N1CC2COCCC2(C(=O)N2CCCC2)C1 (centres unmarked) as well? 83

Try COc1cc(/C=C/C(=O)O)cc(S(=O)(=O)N2CCc3ccccc3C2)c1OC next. 96.8

Follow-up item: Cc1oc2ccccc2c1CN(CCN(C)C)Cc1ccncc1 87.8

Try this compound too: CCN(Cc1ccncc1)C(=O)NCc1cc(C)on1 85.2

And for CC(C)c1noc([C@@H]2Cc3[nH]cnc3CN2C(=O)Nc2ccccc2)n1 ? 86.5

Another compound to look at: O=C(O)c1ccc(CN2C(=O)c3ccc(C(=O)O)cc3C2=O)cc1 93.7

Same question for Cc1nc(CN2CCCC(NCc3cccc4ccccc34)C2)no1 (centres unmarked) please. 71.4

Quick one: CCCn1cnc2cc(NC(=O)Cn3cccc(C(=O)Nc4ccc(F)cc4)c3=O)ccc21 84.7

Also COc1cccc(N2C(=O)/C(=C/c3ccc(O)c(O)c3)SC2=S)c1 , if possible. 94.7

Follow-up item: CCC(CC)C(=O)N1CCN(Cc2ccccc2)CCC1=O 87.9

Query COc1ccc(C2(C(=O)N[C@H]3CC[C@H](O)CC3)CC2)cc1 next 111

Okay, and COc1cccc(C2C(C(=O)c3ccc(Br)cc3)=C(O)C(=O)N2CCN2CCOCC2)c1OC (centres unmarked) ? 110

// same read-out, input: O=C(Nc1ccc(F)cc1)c1ccc(NS(=O)(=O)Cc2ccccc2[N+](=O)[O-])cc1 93

What about this compound? O=C(CN1CCC2(CC1)CN(C(=O)CO)c1ccccc12)c1ccsc1 [CBK144605T] 86.8

Do the same for COc1ccc(C(=O)OC(C)(C)C)c(-c2cncc(NC3CCC(N)CC3)n2)c1 (centres unmarked) please 109

----------
assay: in vitro; details: human, hela cells, % viability
measureName: viability at 28.5 h, 10 µM (%)
Hi! Could you send only the number? It should be in %, unit omitted.

For the compound shown here, COc1ccc(-c2noc(CSc3nc4ccccc4c(=O)n3-c3ccccc3)n2)cc1OC , give the reported viability at 28.5 h, 10 µM. 100

What do you get for CNC(=O)c1sc2ccccc2c1C1CCN(C(=O)Cc2coc3c(C)c(C)ccc23)C1 (stereo not drawn) ? 90.3

# repeat for c1ncc(OC2CCNC2)nc1OCCN1CCOCC1 (stereo not drawn) [CBK077311T] 91.2

Same for COC(=O)c1ccc2oc(-c3cc(C(O)CNC(C)(C)C)ccc3OC(C)C)cc(=O)c2c1 (stereo not drawn) [CBK009944C] 85

// query: Cc1onc(-c2ccccc2)c1CNC(=O)CC1CCCCC1 89.1

# iterate: NS(=O)(=O)c1ccc(CCNC(=O)/C=C/c2ccccc2[N+](=O)[O-])cc1 101

Input O=C(CN1CCN(C(c2ccccc2)c2ccccc2)CC1)CN1C(=O)c2ccccc2C1=O 97.3

Another compound to look at: CC(Cn1cncn1)C(=O)N1CCC(CCc2ccccc2F)CC1 (stereo not drawn) 96

Next: Cc1nn(C)c(C)c1OCC(=O)Nc1cc(C(C)(C)C)sc1C#N 101

----------
experiment: in vitro; settings: human, hela cells, % viability
measureName: viability at 28.5 h, 10 µM (%)
# unit: % | format: bare number

Please look up its viability at 28.5 h, 10 µM: CCC1=NNC(=O)C(CC(=O)Nc2ccccc2)c2cc(OC)c(OC)cc21 (stereo not drawn) [CBK009158] 92.4

Now consider C#CCNC(=O)C1CCCN(c2nc3ccccc3n2CC)C1 (stereo not drawn) [CBK282433] and answer again. 90.5

Try this compound too: OCCNc1nc(N2CCN(Cc3ccccc3)CC2)nc2ccccc12 [CBK266667C] 92.5

Entry COc1ccccc1OCC(=O)N1CCC(Cn2cncn2)(C2CCCCC2)CC1 [CBK136797] please 91.9

Thanks! And COc1ccnc(Cn2ncc(N3CCCC3)cc2=O)c1 [CBK304379] ? 87.5

// repeat for O=C(NCCCc1ccccn1)c1cnn(-c2ccc(F)cc2)c1 [CBK283287] and report 87.6

----------
test: in vitro; details: human, hela cells, % viability
I'd be grateful if you could share measured viability at 28.5 h, 10 µM for these entries.
Numeric only. Scale: %

Returns the measured viability at 28.5 h, 10 µM for the input compound. Input: Cc1ccn2cc(CNC(=O)CN3CCOc4ccccc4C3)nc2c1 84.6

What about O=C(CSc1ccc2ccccc2c1)Nc1ccc(Cl)c(C(=O)O)c1 ? 103

Entry Cc1nn(C)c(N2CCNCC2)c1NC(=O)c1cccs1 [CBK050303T] please 91.9

Item: c1ccc(-c2nc(C3CCCC3)n3ccccc23)cc1 93.3

----------
assay: in vitro; conditions: human, hela cells, % viability
Would you kindly list viability at 28.5 h, 10 µM for each of these compounds?
# output: bare number, implied unit %

Entry O=C1N=C(NC2CCCCCC2)SC1CC(=O)N(Cc1ccccc1)c1ccccc1 (stereo not shown) [CBK067394] : reported viability at 28.5 h, 10 µM = ? 85.2

Then this compound: COc1cc(C(=O)Nc2nc(Cc3n[nH]c(=S)n3C)cs2)ccc1C [CBK296683] 90.6

Further, for O=C(Nc1ccc(N2CCN(C(=O)c3ccco3)CC2)cc1)c1cc([N+](=O)[O-])ccc1N1CCOCC1 [CBK269052] ? 91.6

Same question for Cn1cc(C(Nc2cccc(C#N)n2)[C@H]2C[C@H](O)C2)cn1 (stereo partly shown) [CBK307011] please. 105
